Just for reference, PubChem BioAssay is where these values come from.

- Assay Info: RPMI8226 myeloma cell viability, profiling panel, resazurin fluorescence, basal, 24 h, PK04 Diversity Set (AID 1180);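 note: RPMI8826 multiple myeloma cell line at 5000 cells per well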
- Condition Context: higher = more signal
Below is a list of entries, each paired with its recorded z-score value.
Form: value (number only, do not type unit).

query: // z-score lookup, key: CC(C)OC(=O)C=C1C[C@@H](c2ccccn2)O[C@@H](c2ccccn2)O1
result: -0.474

query: // z-score lookup, key: CC(C)N1C(=O)C[C@@](C(=O)NCC(F)(F)F)(c2ccc([N+](=O)[O-])cc2)[C@H]1c1ccc(CO)cc1
result: 0.939

query: // z-score lookup, key: NC(=O)NCC#Cc1ccc2c(c1)[C@]1(C(=O)N2)[C@H](c2ccccc2OCCO)N2[C@H](c3ccccc3)[C@H](c3ccccc3)OC(=O)[C@H]2[C@@H]1C(=O)Nc1nc2ccccc2s1
result: 0.744

* * *

- Test Target: Albumin (Bos taurus) (UniProt P02769)
- Sequence (P02769 whole entry, looked up): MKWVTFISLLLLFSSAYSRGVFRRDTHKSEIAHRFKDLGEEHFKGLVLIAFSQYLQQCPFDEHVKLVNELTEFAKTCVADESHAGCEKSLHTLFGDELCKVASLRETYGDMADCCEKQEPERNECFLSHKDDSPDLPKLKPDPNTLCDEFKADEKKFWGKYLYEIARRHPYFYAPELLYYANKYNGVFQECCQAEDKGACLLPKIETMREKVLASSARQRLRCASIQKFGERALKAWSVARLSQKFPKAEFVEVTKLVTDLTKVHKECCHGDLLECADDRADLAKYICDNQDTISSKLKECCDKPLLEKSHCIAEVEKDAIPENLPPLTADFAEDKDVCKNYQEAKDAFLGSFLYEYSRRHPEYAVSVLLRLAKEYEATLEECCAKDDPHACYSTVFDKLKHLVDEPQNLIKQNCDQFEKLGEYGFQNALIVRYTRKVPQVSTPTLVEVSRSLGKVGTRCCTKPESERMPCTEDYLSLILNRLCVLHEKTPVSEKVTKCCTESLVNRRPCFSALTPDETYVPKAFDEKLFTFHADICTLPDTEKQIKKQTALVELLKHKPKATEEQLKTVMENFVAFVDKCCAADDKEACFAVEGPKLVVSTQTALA
- Assay Info: bovine serum albumin binders on microarray, profiling panel, artefact control for SMM control protein annotation, biochemical, small-molecule microarray, Alexa647 label, 635/667 nm fluorescence (AID 1118);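 note: score merges 667 nm emission intensity and signal-to-noise per printed compound spot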
- Condition Context: BSA-A647 binding, fluorescence 635 nm, higher = more signal
Reported Property: composite z-score
Form: value (number only, do not type unit).

Consider the reported composite z-score for these molecules:
O=C(NC1CC1)[C@@H]1c2ccccc2C(=O)N(Cc2ccccc2Cl)[C@H]1c1ccc(CO)cc1 :: -0.243
Oc1ccc2cc[n+](Cc3sc4ccccc4c3Cl)cc2c1 :: -0.49

query: Lookup: composite z-score / Albumin (Bos taurus) (UniProt P02769) / CN1C=C(C(=O)OCCS(C)(=O)=O)C(C(=O)OCCS(C)(=O)=O)=CC(c2ccc(CO)cc2)=CC1C1CC1 (centres undefined)
result: -0.0317

query: Lookup: composite z-score / Albumin (Bos taurus) (UniProt P02769) / O=C(NCCO)C1=C[C@H](Oc2ccccc2I)[C@@H](O)[C@H](N(Cc2ccco2)C(=O)Cc2ccccc2)C1
result: -0.884

* * *

Below is a list of entries, each paired with its recorded z-score value.
- Assay Info: fission yeast growth modulation, primary screen, strain 972, OD600, 24 h, no modulator (AID 1090);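 note: basal condition with compound alone and no growth modifier present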
- Condition Context: S. pombe 972 growth, higher = more signal, called active from +8 up or from −8 down
Form: value (number only, do not type unit).

NC(=O)NCC#Cc1ccc2c(c1)[C@]1(C(=O)N2)[C@H](c2ccc(O)cc2)N2[C@H](c3ccccc3)[C@H](c3ccccc3)OC(=O)[C@H]2[C@@H]1C(=O)O :: -0.0898
C=CCC(OC(C)=O)[C@@H]1[C@@H](N(Cc2ccc(-c3cccc(C(F)(F)F)c3)o2)C(=O)c2ccc(C)cc2)c2cc(OCCCO)ccc2N1C(=O)Cc1ccc2ccccc2c1 (some centres undefined) :: -0.0286
CC(C)C(=C=CC[C@@H](O)c1ccc(OCCO)cc1)C[C@@H](O)c1ccccn1 :: -0.141

Lab note: next compound to report on.
query: // z-score lookup, key: CC[C@@H]1C=C(C(=O)O)[C@H](c2ccc(Br)cc2)N1S(=O)(=O)c1ccc(C)cc1
result: 0.794

* * *

- Tested on: XIP peptide (Xip251-270) binding
- Assay Info: small-molecule binders of XIP peptide, primary screen, biochemical, small-molecule microarray, fluorescence 635/667 nm, 0.1 µg/mL protein (AID 1182)
- Condition Context: fluorescent protein binding, 635 nm, higher = more signal, called active from +8 up or from −8 down
Class Met: composite z-score at least 0.5. Class Not met: composite z-score below 0.5.

Cc1ccc(S[C@]2(C(=O)NCCCN(C)C)CC(=O)N(Cc3ccccc3C(F)(F)F)[C@@H]2c2ccc(CO)cc2)cc1 :: Not met
O=C1C[C@@](C(=O)NCC(F)(F)F)(c2ccc([N+](=O)[O-])cc2)[C@@H](c2ccc(CO)cc2I)N1C1CCCCC1 :: Not met
COc1cc(NN2C(C(O)c3ccco3)C=CC3C(=O)N(c4ccccc4)C(=O)C32)cc(OC)c1OC (configuration not stated) :: Not met
COC(=O)[C@@]1(Cc2ccc(OC)cc2)[C@H]2c3cc(C(=O)N(C)C)n(Cc4ccccn4)c3C[C@H]2CN1C(=O)c1ccccc1 :: Met
C=CCNC(=O)[C@@H]1[C@H]2C(=O)O[C@H](c3ccccc3)[C@H](c3ccccc3)N2[C@H](c2ccc(OCCO)cc2)[C@@]12C(=O)Nc1ccc(C#CCC(C(=O)OC)C(=O)OC)cc12 :: Met

query: Identify whether the reported composite z-score of the following molecule is 0.5 or greater: C=CC[C@]1(C(=O)NCc2ccccc2)N=C(c2ccc(OCCCO)cc2)O[C@H]1c1ccccc1N=[N+]=[N-]
result: Met

query: Identify whether the reported composite z-score of the following molecule is 0.5 or greater: COCCOC(=O)N1C(=O)[C@@]2(c3cc(C#CCCO)ccc31)[C@H](C(=O)N1CCCCCCC1)[C@H]1C(=O)O[C@H](c3ccccc3)[C@H](c3ccccc3)N1[C@@H]2c1ccc(OCCO)cc1
result: Met
